# test-target: Human Her2 protein (human, UniProt P04626 23-652)
pKd: −log10 of the molar value.
Reported pKd values for a set of binders
measure-name: pKd

binder="1159 Pro1045 (antibody, V domains shown) VH: QVQLQESGGGLVQAGGSLRLSCATSGRTFSSLAMGWFRQAPGKERELVAGISWSGSTTYYADSVKGRFAISRDNAKNTVYLQMNSLKPEDTAVYYCAARTSSIATIGREYDYWGQGTQVTVSS" value_comparator== quantitative_readout=7.74
binder="1055 Pro1036 (protein) QVQLQESGGGLVQPGGSLRLTCEVSGRAISSYAISWFRQAPGEEREFVAAINWSGTHTNYADSVKGRFTISRDNVKNTVYLQMNSLKPEDTATYFCSRGWSVFDPDYRGQGTQVTVSS" value_comparator== quantitative_readout=7.27
binder="h1139 Pro1060 (protein) QVQLVESGGGVVRPGGSLRLSCAASGFTFDDYAMSWIRQAPGKEMEWVSGINWSGTHTRYADSVKGRFTISRDNAKNSLYLQMNSLRAEDTALYYCARGFAADSRSTRGQGTLVTVSS" value_comparator== quantitative_readout=8.14
binder="1058 Pro1037 (protein) QVQLQESGGGLVQAGGSLRLTCAASGRAISSYAISWFRQAPGEEREFVAAINWSGTHTDYADSVKGRFTISRDNVKRTVYLQMNSLKPEDTATYFCSRGWSVFDPDYRGQGTQVTVSS" value_comparator== quantitative_readout=8.07
binder="1097 Pro1041 (protein) QVQLQESGGGLVQPGGSLRLSCAASGFIFDDYAMTWVRQAPGKGLEWVSSINWSGTHTDYADSVKGRFTISRDNAKNTLYLQMNSLKSEDSAVYYCVKGWRHTDNYYAGVQGQGTQVTVSS" value_comparator== quantitative_readout=8.60
binder="h1156 Pro1061 (antibody, V domains shown) VH: QVQLLESGGGLVQPGGSLRLSCAASRNIGSNYAVGWFRQAPGKEREPVAALRWTGSIIGYDDSLRGRFTISKDNSKNTLYLQMNSLKPEDTAVYYCAARILDRSSYDYWGQGTLVTVSS" value_comparator=> quantitative_readout=11.00
binder="1121 Pro1042 (protein) QVQLQESGGGLVQAGGSLRLSCAASGFIFSDYAMTWVRQAPGKGLEWVSSINWSGTHTNYADSVKGRFTISRDNAKKTLYLQMNSLKSEDTAVYYCARGWMVVPDSTRGQGTQVTVSS" value_comparator== quantitative_readout=8.42
binder="1160 Pro1046 (antibody, V domains shown) VH: QVQLQESGGGLVQAGGSLRLSCAASGRTFSNERLGWFRQAPGKERELVAAIRWSGVIIGYADSVRGRFTISRDNAKSTVYLQMNSLRPEDTAVYFCAADRGVYGTWDYWGQGTQVTVSS" value_comparator== quantitative_readout=7.25
